Target: CDK7/CyclinH/MAT1 (Homo sapiens, UniProt P50613)
Sequence (P50613 whole entry): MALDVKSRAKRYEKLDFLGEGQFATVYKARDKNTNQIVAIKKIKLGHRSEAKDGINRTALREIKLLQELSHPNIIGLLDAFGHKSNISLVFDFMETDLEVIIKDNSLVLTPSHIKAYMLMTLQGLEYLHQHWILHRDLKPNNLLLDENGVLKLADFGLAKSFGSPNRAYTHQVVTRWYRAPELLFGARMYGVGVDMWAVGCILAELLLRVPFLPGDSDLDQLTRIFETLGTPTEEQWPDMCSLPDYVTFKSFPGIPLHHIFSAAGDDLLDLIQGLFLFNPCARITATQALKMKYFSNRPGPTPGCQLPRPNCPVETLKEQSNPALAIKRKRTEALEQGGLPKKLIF
Sequence (P51946 whole entry partner): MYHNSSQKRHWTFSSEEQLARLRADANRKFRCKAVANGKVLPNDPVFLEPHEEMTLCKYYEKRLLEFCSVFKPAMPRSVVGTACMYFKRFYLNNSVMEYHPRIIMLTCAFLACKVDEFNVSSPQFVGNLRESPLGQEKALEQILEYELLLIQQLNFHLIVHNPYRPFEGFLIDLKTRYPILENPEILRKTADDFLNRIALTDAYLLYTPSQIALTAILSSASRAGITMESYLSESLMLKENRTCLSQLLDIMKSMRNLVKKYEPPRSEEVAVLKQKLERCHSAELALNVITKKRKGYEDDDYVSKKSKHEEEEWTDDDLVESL
Sequence (P51948 whole entry partner): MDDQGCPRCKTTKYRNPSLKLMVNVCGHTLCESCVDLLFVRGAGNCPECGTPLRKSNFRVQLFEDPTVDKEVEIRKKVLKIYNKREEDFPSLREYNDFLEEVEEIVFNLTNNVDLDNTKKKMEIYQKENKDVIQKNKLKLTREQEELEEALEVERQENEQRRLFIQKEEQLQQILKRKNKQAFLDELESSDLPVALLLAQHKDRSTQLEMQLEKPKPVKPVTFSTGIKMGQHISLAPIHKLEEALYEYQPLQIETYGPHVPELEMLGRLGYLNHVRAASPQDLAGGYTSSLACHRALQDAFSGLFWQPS
Assay: CDK7/CyclinH/MAT1 kinase inhibitory activity (Caliper mobility shift)
Settings: enzyme 12.5 nM, ATP 70 μM, 28° C. 30 min; read-out: CDK7/Cyclin H/MAT1 IC50
pIC50: −log10 of the molar value.

COMPOUND: Cc1nc2c(F)cc(-c3nc(N[C@@H]4CCOC[C@H]4O)ncc3F)cc2c(C)c1C(C)O (single isomer, unassigned) [Example 81a]
ASSAYED_SYSTEM: CDK7/CyclinH/MAT1 (Homo sapiens, UniProt P50613)
pIC50: 6.00 to 7.00
--
COMPOUND: CNC(C)c1cc2cc(-c3nc(N[C@@H]4CCOC[C@H]4O)ncc3Cl)cc(F)c2nc1C (single isomer, unassigned) [Example 45b]
ASSAYED_SYSTEM: CDK7/CyclinH/MAT1 (Homo sapiens, UniProt P50613)
pIC50: ≤ 6.00
--
COMPOUND: Cc1nc2c(F)cc(-c3nc(N[C@@H]4CCOC[C@H]4O)ncc3Cl)cc2c2c1CCN(C)C2 [Example 37]
ASSAYED_SYSTEM: CDK7/CyclinH/MAT1 (Homo sapiens, UniProt P50613)
pIC50: ≤ 6.00
--
COMPOUND: CNC(C)(C)c1cnc2c(F)cc(-c3nc(N[C@@H]4CCOC[C@H]4O)ncc3Cl)cc2c1 [Example 36]
ASSAYED_SYSTEM: CDK7/CyclinH/MAT1 (Homo sapiens, UniProt P50613)
pIC50: ≤ 6.00
--
COMPOUND: O[C@@H]1COCC[C@H]1Nc1ncc(Cl)c(-c2cc(F)c3ncc4c(c3c2)CNCC4)n1 [Example 9]
ASSAYED_SYSTEM: CDK7/CyclinH/MAT1 (Homo sapiens, UniProt P50613)
pIC50: 6.00 to 7.00
--
COMPOUND: CC(C)(N)c1cnc2ccc(-c3nc(N[C@@H]4CCOC[C@H]4O)ncc3Cl)cc2c1 [Example 26]
ASSAYED_SYSTEM: CDK7/CyclinH/MAT1 (Homo sapiens, UniProt P50613)
pIC50: ≤ 6.00
--
COMPOUND: Cc1c(C(C)(C)O)cnc2c(F)cc(-c3nc(N[C@@H]4CCOC[C@H]4O)ncc3F)cc12 [Example 23]
ASSAYED_SYSTEM: CDK7/CyclinH/MAT1 (Homo sapiens, UniProt P50613)
pIC50: 7.00 to 8.00
--
COMPOUND: Cc1nc2c(F)cc(-c3nc(N[C@@H]4CCOC[C@H]4O)ncc3Cl)cc2c2c1CC(C)(C)NC2 [Example 98]
ASSAYED_SYSTEM: CDK7/CyclinH/MAT1 (Homo sapiens, UniProt P50613)
pIC50: ≤ 6.00
--
COMPOUND: O[C@@H]1COCC[C@H]1Nc1ncc(Cl)c(-c2cc(F)c3ncc4c(c3c2)CNC2(CC2)C4)n1 [Example 21]
ASSAYED_SYSTEM: CDK7/CyclinH/MAT1 (Homo sapiens, UniProt P50613)
pIC50: ≤ 6.00
